Target: Cathepsin K (Homo sapiens, UniProt P43235)
Sequence (P43235 115-329): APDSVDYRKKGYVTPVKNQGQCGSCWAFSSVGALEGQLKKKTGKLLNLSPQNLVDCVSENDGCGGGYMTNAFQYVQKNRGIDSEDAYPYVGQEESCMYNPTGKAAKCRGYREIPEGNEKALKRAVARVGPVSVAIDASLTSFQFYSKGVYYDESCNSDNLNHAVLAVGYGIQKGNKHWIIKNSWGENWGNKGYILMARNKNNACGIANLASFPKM
Assay: Cathepsin K inhibition assay (fluorogenic peptide substrate); selectivity ratio vs cathepsin S
Format: biochemical
Conditions: ratio of cathepsin K inhibition constant to cathepsin S inhibition constant; Table II
measurement.name: Selectivity for Cat. S over Cat. K

A selection of reference data follows.
- O=C(Cc1ccc(F)c(F)c1)N[C@@H](CC1CCCCC1)C(=O)NCCNc1ccc(F)cc1: ++ (++, >100)
- COc1ccc(NCCNC(=O)[C@H](Cc2ccccc2)NC(=O)NCc2cccc(F)c2)cc1: + (+, >10)
- COc1ccc(NCCNC(=O)[C@H](Cc2cccc(C(F)(F)F)c2)NC(=O)c2cccc(C)c2)cc1: +++ (+++, >1000)
- O=C(N[C@@H](CC1CCCCC1)C(=O)NCCNc1ccc(OC(F)(F)F)cc1)c1csc(-c2ccccc2)n1: + (+, >10)

Selectivity for Cat. S over Cat. K for COc1ccc(NCCNC(=O)C(NC(=O)c2cccc(C)c2)C(C)c2ccc([N+](=O)[O-])cc2)cc1 (stereo not drawn) ?
+ (+, >10)

Selectivity for Cat. S over Cat. K for COc1ccc(NCCNC(=O)[C@H](Cc2cccc(F)c2)NC(=O)c2cccc(C)c2)cc1 ?
+++ (+++, >1000)

Selectivity for Cat. S over Cat. K for O=C(N[C@@H](CC1CCCCC1)C(=O)NCCNc1ccccc1C(=O)O)c1ccc(-c2cccc(C(F)(F)F)c2)o1 ?
+ (+, >10)

Selectivity for Cat. S over Cat. K for O=C(Cc1ccc(Cl)cc1)N[C@@H](CC1CCCCC1)C(=O)NCCNc1ccc(F)cc1 ?
++ (++, >100)

Selectivity for Cat. S over Cat. K for COc1ccc(NCCNC(=O)[C@H](Cc2ccc(I)cc2)NC(=O)c2cccc(C)c2)cc1 ?
+++ (+++, >1000)

Selectivity for Cat. S over Cat. K for O=C(N[C@@H](CC1CCCCC1)C(=O)NCCNc1ccc(F)cc1)c1ccnnc1 ?
++ (++, >100)

Selectivity for Cat. S over Cat. K for COc1ccc(NCCNC(=O)[C@H](CC2CCOCC2)NC(=O)c2ccc(-c3cccc(C(F)(F)F)c3)o2)cc1 ?
+ (+, >10)

Selectivity for Cat. S over Cat. K for COc1ccc(NCCNC(=O)[C@H](Cc2ccccc2)NC(=O)c2cccc3c2OCC3)cc1 ?
+ (+, >10)

Selectivity for Cat. S over Cat. K for COc1ccc(NCCNC(=O)[C@H](COCc2ccccc2)NC(=O)c2cccc(C)c2)cc1 ?
++ (++, >100)

Selectivity for Cat. S over Cat. K for O=C(Cc1cccc(C(F)(F)F)c1)N[C@@H](CC1CCCCC1)C(=O)NCCNc1ccc(F)cc1 ?
++ (++, >100)

Selectivity for Cat. S over Cat. K for O=C(N[C@@H](CC1CCCCC1)C(=O)NCCNc1ccc(OC(F)(F)F)cc1)c1ccc(-c2cccc(C(F)(F)F)c2)s1 ?
+++ (+++, >1000)
